Assay: soluble on expression in E. coli; label from the status in PepcDB or PDB records
quantity measured: soluble on expression in E. coli

MKITPLDIQQQQFKGKMLGGIDPEDVDSFLQLVAQEMEGLIRENTDLREQCRKAAADAEQTARQERELREAMLAAQKITEEMKANAQKEASLIVSEAEVKAEKILVDAERRLGQLNEQLQDLRRQKLQFESAFKALLDTHYKMISLEDA ... not soluble
MEMSSNNKPVAGAEIKVAGASPTDSDQEGRFILNFTASLPGDPLMINDIYKKGFKIVNYEKVANWNISSASELKIVLGRTEVINALRKKYYDIGESNSEKEYRKTLAELEELKKQNALSAVEYDQKVDSMSKSMMEWQKRLEIYALKFACINRDELDAMEKQAMELLDHGDVHGAIRLYEEMKLDSTMTLKIAVRQEAKEDMKLLLPSLVNNFQLLKQADDKVACDSVAHLIYEMAADIKLKLMSVEWFFQRNDPSEVLDQYSLIVKDTQSMQEIELVENSLQQSLKEVKLKGELKKKAQLVFERIEDRKKWISIKEKI ... not soluble
